For each of the molecules below, state its composite z-score.
experiment: small-molecule microarray binders of probe aNog, primary screen, biochemical, biotinylated probe, 635/667 nm fluorescence (AID 1115); settings: higher = more signal;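 further: probe is biotinylated aNog protein used at 0.15 µg/mL for 1 h at 4 C; z-score combines 667 nm fluorescence of each spot with its signal to noise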
// response body must contain only the number

response.value for CC(C)CNC(=O)[C@@]1(Cc2ccccc2I)c2ccccc2C(=O)N(C2CCCCC2)[C@H]1c1ccc(CO)cc1 (field: composite z-score) = -0.237

response.value for COc1ccc(CCNC(=O)[C@@]2(Sc3ccc(C)cc3)CC(=O)N(C3Cc4ccccc4C3)[C@@H]2c2ccc(CO)cc2I)cc1 (field: composite z-score) = 0.136

response.value for O=C1N[C@@H](Cc2ccccc2)C(=O)N2[C@@H]1C[C@@H](C(=O)O)[C@H]2c1cccc(OCCO)c1 (field: composite z-score) = -0.199

response.value for COc1ccc(C#Cc2ccc3c(c2)[C@]2(C(=O)N3)[C@H](C(=O)Nc3nc4ccccc4s3)[C@H]3C(=O)O[C@H](c4ccccc4)[C@H](c4ccccc4)N3[C@@H]2c2ccc(O)cc2)cc1 (field: composite z-score) = 2.23

response.value for COC(=O)[C@H](Cc1ccccc1)N[C@@H](/C=C/C1CC1)[C@H](O)Cc1ccccc1 (field: composite z-score) = -0.349

response.value for C=CCOC(=O)[C@@H]1[C@H]2C(=O)O[C@H](c3ccccc3)[C@H](c3ccccc3)N2[C@H](c2ccc(OCCOC(=O)[C@H]3C[C@H]4C(=O)N5CCC[C@H]5C(=O)N4[C@H]3c3ccc(O)cc3)cc2)[C@@]12C(=O)Nc1ccc(I)cc12 (field: composite z-score) = -0.326

response.value for CC(C)(C)OC(=O)CC[C@]1(C(=O)N2CCOCC2)N=C(c2ccc(OCCCO)cc2)O[C@H]1c1ccccc1N=[N+]=[N-] (field: composite z-score) = 1.37

response.value for CCCC[C@H]1OB(O)C[C@H]2C1=C(COC)Cn1c(=O)n(-c3ccccc3)c(=O)n12 (field: composite z-score) = 0.445

response.value for CC(C)C[C@@H]1NC(=O)[C@@H]2C[C@H](C(=O)NCc3ccc(F)cc3)[C@H](c3cccc(OCCO)c3)N2C1=O (field: composite z-score) = -0.0315

response.value for NC(=O)NCC#Cc1ccc2c(c1)[C@]1(C(=O)N2)[C@H](c2ccc(O)cc2)N2[C@H](c3ccccc3)[C@H](c3ccccc3)OC(=O)[C@H]2[C@@H]1C(=O)O (field: composite z-score) = -0.0683

response.value for CCOC(=O)C[C@H]1[C@H](OC(=O)c2ccc(C(=O)c3ccccc3)cc2)[C@@H](NC(=O)c2ccc3ccccc3c2)c2cc(OCCCO)ccc2N1C(=O)Cc1ccc(OC)cc1 (field: composite z-score) = 0.177

response.value for CC1(C)[C@@H]2CC(C(O)C3C=CC4C(=O)N(c5ccccc5)C(=O)C4N3Nc3ccc([N+](=O)[O-])cc3)=C[C@H]1C2 (some centres undefined) (field: composite z-score) = 0.902

response.value for CC(C)=CCCC(C)=CC(O)C1C=CC2C(=O)N(C)C(=O)C2N1Nc1ccccc1 (centres undefined) (field: composite z-score) = 1.3

response.value for COC(=O)[C@@]1(Cc2ccc(OC)cc2)[C@H]2c3cc(C(=O)N(C)C)n(CCc4ccccn4)c3C[C@H]2CN1C(=O)c1ccccc1 (field: composite z-score) = 0.854

Recorded values, source PubChem BioAssay.
